Reference source: ChEMBL document CHEMBL1136796

System: L1210
testName: Antiproliferative activity against L1210 phenotype L1210 VCR tumor cell line
Format: functional, cell-based
testParameters: Mus musculus
resultType: pIC50
pIC50 (log units): -log10 of the concentration in mol/L.

Consider the following illustrative entries.
COC(=O)Nc1nc2cc(C(=O)c3cccs3)ccc2[nH]1 = 7.15
COc1ccc(C=C2c3ccccc3C(=O)c3ccccc32)c(OC)c1O = 7.15

// next item, pIC50 requested
Prompt line: Any idea what pIC50 was measured for `COc1ccc(C=C2c3ccccc3C(=O)c3ccccc32)cc1O` ?
Response line: 6.89

* * *

Test system: SK-OV-3
testName: Cytotoxic activity against cellular metabolic activity of Ovary SKOV3 tumor cell line using XTT proliferation assay after incubation with the compound for 48 h
Type: functional, cell-based
testParameters: Homo sapiens, SK-OV-3, 48 h
resultType: IC50 (nM)
Please give a number only; it is taken to be in nM.

Consider the following illustrative entries.
COC(=O)Nc1nc2cc(C(=O)c3cccs3)ccc2[nH]1 = 170
COc1cc2c(c(OC)c1OC)-c1ccc(OC)c(=O)cc1[C@@H](NC(C)=O)CC2 = 50
COc1ccc(C=C2c3ccccc3C(=O)c3ccccc32)cc1O = 50
COc1ccc(C=C2c3ccccc3C(=O)c3ccccc32)c(OC)c1O = 60

// next item, IC50 requested
Prompt line: Any idea what IC50 was measured for `CC(=O)O[C@H]1C(=O)[C@@]2(C)[C@H]([C@H](OC(=O)c3ccccc3)[C@]3(O)C[C@H](OC(=O)[C@H](O)[C@@H](NC(=O)c4ccccc4)c4ccccc4)C(C)=C1C3(C)C)[C@]1(OC(C)=O)CO[C@@H]1C[C@@H]2O` ?
Response line: 10

* * *

Each entry below carries its reported pIC50.
System: LXFL 529
testName: Tested for induction of cellular death in Human lung LXF 529L tumor cell line in Propidium Iodide Monolayer Assay
Format: functional, cell-based
pIC50 (log units): -log10 of the concentration in mol/L.

Prompt line: Fill in the recorded pIC50 for this compound, with LXFL 529 as test system: `COc1ccc(C=C2c3ccccc3C(=O)c3ccccc32)cc1`
Response line: 6.59

Prompt line: Next entry: `COc1cc(C=C2c3ccccc3C(=O)c3ccccc32)ccc1O`
Response line: 5.49

Prompt line: Next entry: `COc1cc(C=C2c3ccccc3C(=O)c3ccccc32)cc(OC)c1O`
Response line: 5.13

Prompt line: Next entry: `O=C1c2ccccc2C(=Cc2ccc(O)c(O)c2)c2ccccc21`
Response line: 5.79

Prompt line: Next entry: `COc1cccc(C=C2c3ccccc3C(=O)c3ccccc32)c1O`
Response line: 5.35

Prompt line: Next entry: `COc1ccc(C=C2c3ccccc3C(=O)c3ccccc32)c(OC)c1O`
Response line: 7.15

Prompt line: Next entry: `COc1ccc(C=C2c3ccccc3C(=O)c3ccccc32)cc1O`
Response line: 6.28

Prompt line: Next entry: `COc1cccc2c1C(=O)c1c(O)c3c(c(O)c1C2=O)C[C@@](O)(C(=O)CO)C[C@@H]3O[C@H]1C[C@H](N)[C@H](O)[C@H](C)O1`
Response line: 7.52

* * *

Each entry below carries its reported pIC50.
System: P388/ADR
testName: Antiproliferative activity against P388 phenotype P388 ADR tumor cell line
Type: functional, cell-based
testParameters: Mus musculus
pIC50 (log units): -log10 of the concentration in mol/L.

Consider the following illustrative entries.
CC[C@]1(O)C[C@@H]2CN(CCc3c([nH]c4ccccc34)[C@@](C(=O)OC)(c3cc4c(cc3OC)N(C)[C@H]3[C@@](O)(C(N)=O)[C@H](O)[C@]5(CC)C=CCN6CC[C@]43[C@@H]65)C2)C1 = 5.96
COC(=O)Nc1nc2cc(C(=O)c3cccs3)ccc2[nH]1 = 7.30
COc1ccc(C=C2c3ccccc3C(=O)c3ccccc32)cc1O = 6.59

Prompt line: Fill in the recorded pIC50 for this compound, with P388/ADR as test system: `COc1ccc(C=C2c3ccccc3C(=O)c3ccccc32)c(OC)c1O`
Response line: 6.96

* * *

Species on record: Sus scrofa
testName: Concentration required to inhibit Microtubule assembly compared to colchicine using EM studies
Format: functional
resultType: IC50 (nM)
Please give a number only; it is taken to be in nM.

Prompt line: Any idea what IC50 was measured for `COc1ccc(C=C2c3ccccc3C(=O)c3ccccc32)cc1O` ?
Response line: 700

* * *

targetUnderTest: Tubulin (Sus scrofa, UniProt P02554+P02550)
testName: In vitro inhibition of maximum porcine tubulin assembly rate after 20 min at 37 degrees C
Assay type: functional
resultType: IC50 (µM)
Please give a number only; it is taken to be in µM.

O=C1c2ccccc2C(=Cc2ccccc2)c2ccccc21 = 4.4

// next item, IC50 requested
Prompt line: Any idea what IC50 was measured for `COc1cc(C=C2c3ccccc3C(=O)c3ccccc32)ccc1O` ?
Response line: 0.63

* * *

targetUnderTest: Tubulin (Sus scrofa, UniProt P02554+P02550)
testName: In vitro inhibition of maximum porcine tubulin assembly rate after 20 min at 37 degrees C
Format: functional
resultType: IC50 (µM)
Please give a number only; it is taken to be in µM.

COc1cc(C=C2c3ccccc3C(=O)c3ccccc32)cc(OC)c1OC = 10
O=C1c2ccccc2C(=Cc2cc(Br)c(O)c(Br)c2)c2ccccc21 = 0.48
COc1cccc(C=C2c3ccccc3C(=O)c3ccccc32)c1O = 0.91
Cc1cc(C=C2c3ccccc3C(=O)c3ccccc32)cc(C)c1O = 0.91
COc1cc(CC2c3ccccc3C(=O)c3ccccc32)cc(OC)c1 = 10

Prompt line: Any idea what IC50 was measured for `COc1ccc(C=C2c3ccccc3C(=O)c3ccccc32)cc1O` ?
Response line: 0.67

Prompt line: Next entry: `COc1ccc(CC2c3ccccc3C(=O)c3ccccc32)cc1`
Response line: 2.6

* * *

Each entry below carries its reported pIC50.
Tested on: LT12 tumor cell line
testName: Antiproliferative activity against LT12 tumor cell line
Assay type: functional, cell-based
testParameters: Rattus norvegicus
pIC50 (log units): -log10 of the concentration in mol/L.

Consider the following illustrative entries.
COC(=O)Nc1nc2cc(C(=O)c3cccs3)ccc2[nH]1 = 6.52
CC[C@]1(O)C[C@@H]2CN(CCc3c([nH]c4ccccc34)[C@@](C(=O)OC)(c3cc4c(cc3OC)N(C)[C@H]3[C@@](O)(C(N)=O)[C@H](O)[C@]5(CC)C=CCN6CC[C@]43[C@@H]65)C2)C1 = 9.00
COc1ccc(C=C2c3ccccc3C(=O)c3ccccc32)cc1O = 6.49
CC(=O)O[C@H]1C(=O)[C@@]2(C)[C@H]([C@H](OC(=O)c3ccccc3)[C@]3(O)C[C@H](OC(=O)[C@H](O)[C@@H](NC(=O)c4ccccc4)c4ccccc4)C(C)=C1C3(C)C)[C@]1(OC(C)=O)CO[C@@H]1C[C@@H]2O = 8.22

// next item, pIC50 requested
Prompt line: Any idea what pIC50 was measured for `COc1ccc(C=C2c3ccccc3C(=O)c3ccccc32)c(OC)c1O` ?
Response line: 6.92

* * *

Each entry below carries its reported IC50.
targetUnderTest: Tubulin (Sus scrofa, UniProt P02554+P02550)
testName: In vitro inhibition of maximum porcine tubulin assembly rate after 20 min at 37 degrees C
Assay type: functional
Please give a number only; it is taken to be in µM.

Consider the following illustrative entries.
COc1ccc(C=C2c3ccccc3C(=O)c3ccccc32)cc1OC = 1.7
O=C1c2ccccc2C(=Cc2ccc(O)cc2)c2ccccc21 = 2.5
COc1cc(C=C2c3ccccc3C(=O)c3ccccc32)cc(OC)c1O = 0.63
O=C1c2ccccc2C(=Cc2ccc(O)c(O)c2)c2ccccc21 = 1.8
COc1ccc(C=C2c3ccccc3C(=O)c3ccccc32)c(OC)c1O = 0.43
COc1ccc(C=C2c3ccccc3C(=O)c3ccccc32)c(O)c1 = 1.2
COc1ccc(CC2c3ccccc3C(=O)c3ccccc32)cc1O = 2.3

// next item, IC50 requested
Prompt line: Any idea what IC50 was measured for `COc1ccc(C=C2c3ccccc3C(=O)c3ccccc32)cc1` ?
Response line: 0.76

* * *

Organism: Sus scrofa
testName: In vitro inhibitory concentration against tubulin assembly
Type: functional
resultType: pIC50
pIC50 (log units): -log10 of the concentration in mol/L.

COc1ccc(C=C2c3ccccc3C(=O)c3ccccc32)c(OC)c1O = 6.37
COc1ccc(C=C2c3ccccc3C(=O)c3ccccc32)cc1O = 6.17

// next item, pIC50 requested
Prompt line: Any idea what pIC50 was measured for `COc1ccc(C=C2c3ccccc3C(=O)c3ccccc32)c(O)c1` ?
Response line: 5.92

* * *

Tested on: MAXF401 cell line
testName: Tested for induction of cellular death in Human breast 401NL tumor cell line in Propidium Iodide Monolayer Assay
Assay type: functional, cell-based
resultType: IC50 (nM)
Please give a number only; it is taken to be in nM.

Consider the following illustrative entries.
COc1cc(C=C2c3ccccc3C(=O)c3ccccc32)cc(OC)c1O = 240
COc1cccc2c1C(=O)c1c(O)c3c(c(O)c1C2=O)C[C@@](O)(C(=O)CO)C[C@@H]3O[C@H]1C[C@H](N)[C@H](O)[C@H](C)O1 [DOXORUBICIN] = 10
COc1ccc(C=C2c3ccccc3C(=O)c3ccccc32)cc1 = 300
COc1cccc(C=C2c3ccccc3C(=O)c3ccccc32)c1O = 20
O=C1c2ccccc2C(=Cc2ccc(O)c(O)c2)c2ccccc21 = 210

// next item, IC50 requested
Prompt line: Any idea what IC50 was measured for `COc1cc(C=C2c3ccccc3C(=O)c3ccccc32)ccc1O` ?
Response line: 1510
